The reported measurements were obtained from PubChem BioAssay AID2156.

- Study System: Potassium voltage-gated channel subfamily KQT member 2 (Rattus norvegicus) (UniProt O88943)
- Sequence (O88943 whole entry, looked up): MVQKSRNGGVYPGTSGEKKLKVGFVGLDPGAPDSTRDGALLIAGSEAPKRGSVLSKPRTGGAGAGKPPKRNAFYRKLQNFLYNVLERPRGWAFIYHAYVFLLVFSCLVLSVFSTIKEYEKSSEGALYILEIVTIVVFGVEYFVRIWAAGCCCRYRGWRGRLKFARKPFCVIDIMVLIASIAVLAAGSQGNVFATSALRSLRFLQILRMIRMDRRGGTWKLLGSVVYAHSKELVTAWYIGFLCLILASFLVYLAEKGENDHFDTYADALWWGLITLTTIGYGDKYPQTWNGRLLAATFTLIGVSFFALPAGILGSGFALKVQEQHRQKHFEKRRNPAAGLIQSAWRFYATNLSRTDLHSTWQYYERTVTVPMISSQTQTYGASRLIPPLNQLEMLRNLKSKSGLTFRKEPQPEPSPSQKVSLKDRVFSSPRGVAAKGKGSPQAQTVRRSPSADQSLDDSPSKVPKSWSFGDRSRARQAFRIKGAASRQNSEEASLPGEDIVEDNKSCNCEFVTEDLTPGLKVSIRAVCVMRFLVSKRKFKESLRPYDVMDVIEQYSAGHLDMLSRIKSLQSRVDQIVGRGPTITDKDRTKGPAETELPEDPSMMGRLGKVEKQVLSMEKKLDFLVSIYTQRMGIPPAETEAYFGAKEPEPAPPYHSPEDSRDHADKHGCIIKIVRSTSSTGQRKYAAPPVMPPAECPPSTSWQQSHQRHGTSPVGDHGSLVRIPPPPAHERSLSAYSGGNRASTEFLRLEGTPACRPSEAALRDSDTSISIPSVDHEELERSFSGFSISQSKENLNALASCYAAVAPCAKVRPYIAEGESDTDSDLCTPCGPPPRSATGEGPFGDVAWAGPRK
- Assay Comment: rat KCNQ2 potassium channel inhibitors, primary screen, cell-based, CHO-K1, FluxOR thallium flux, B-score (AID 2156)
- Experimental Context: 20 min, at 10 µM
In all, about 310,000 compounds went through this assay and about 3,400 (1.1%) were called active.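 The calls were made as follows: active = fluorescence ratio B-score at most minus 3 library SDs, with starting brightness B-score within 2 library SDs (cut at about -5.5 in these data); inactive = the rest, inconclusive results apart.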 The full list was thinned out, with actives kept by preference.
Thanks in advance; please answer with one of these: 1 for active, -1 for inactive

Example entries and their recorded answers appear below.
CCN(C(=O)CSc1nnnn1-c1ccccc1OC)C1CCS(=O)(=O)C1 (stereo unspecified) : -1
O=C(CCN1CCc2ccccc2C(O)(c2ccccc2)C1)c1ccc2c(c1)OCCO2 (stereo unspecified) : 1
CC(Oc1ccc(F)cc1)C(=O)Nc1ccccc1C(=O)NC1CC1 (stereo unspecified) : -1
O=C(CN1CCC(O)(c2ccccc2)CC1)Nc1ccc2c(c1)OCCO2 : -1

Exam item: // param item: CC(=O)c1c(-c2ccccc2)c2ccccc2[nH]c1=O ; yields the recorded call
Marked response: -1

Exam item: And the next one, CCN(CC)CCOc1ccc2c(c1)C(=NNC(=O)c1ccccn1)c1cc(OCCN(CC)CC)ccc1-2 ?
Marked response: 1

Exam item: Same thing, different compound: Cc1nc2ccccc2c(C)c1C(=O)c1ccc(F)cc1
Marked response: -1

Exam item: Try CCC1(c2ccccc2)NC(=O)N(CC(=O)c2ccc3c(c2)OCO3)C1=O (stereo unspecified) next.
Marked response: -1

Exam item: Proceed to CSc1ccccc1NC(=O)C(C)N1C(=O)c2ccccc2S1(=O)=O (stereo unspecified)
Marked response: -1

Exam item: Also need O=C(Nc1cccc(F)c1)NC1CCCc2ccccc21 (stereo unspecified) , thanks.
Marked response: 1

Exam item: Now the same for Cc1cc(C)c(-c2csc(NC(=O)CCCc3nc4ccccc4c(=O)[nH]3)n2)c(C)c1
Marked response: -1
